Target: T1, ALK4-Fc:ActRIIB-Fc heterodimer (human, UniProt P36896 24-126; Q13705 20-134)
T1 construct: also called ALK4-Fc:ActRIIB-Fc heterodimeric complex; ALK4:ActRIIB heterodimer; not shown: linker and engineered Fc
T1 sequence 1: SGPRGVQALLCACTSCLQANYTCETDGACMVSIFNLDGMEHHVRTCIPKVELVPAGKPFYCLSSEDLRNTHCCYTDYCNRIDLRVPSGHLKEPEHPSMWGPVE
T1 sequence 2: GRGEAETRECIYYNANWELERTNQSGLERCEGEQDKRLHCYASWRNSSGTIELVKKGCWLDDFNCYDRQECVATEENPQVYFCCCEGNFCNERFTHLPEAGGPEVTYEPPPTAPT
Experiment: SPR (Biacore), Fc protein captured by anti-Fc antibody, ligand injected
resultType: kon (M⁻¹ s⁻¹)

Worked cases, answers included:
binder	kon (M⁻¹ s⁻¹)
activin A (ligand, UniProt P08476 311-426, looked up, also called ActA) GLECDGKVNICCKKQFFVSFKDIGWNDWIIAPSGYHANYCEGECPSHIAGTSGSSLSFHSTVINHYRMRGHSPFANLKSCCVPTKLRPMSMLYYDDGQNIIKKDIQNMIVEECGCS	1.3e+07
BMP10 (ligand, UniProt O95393 317-424, looked up) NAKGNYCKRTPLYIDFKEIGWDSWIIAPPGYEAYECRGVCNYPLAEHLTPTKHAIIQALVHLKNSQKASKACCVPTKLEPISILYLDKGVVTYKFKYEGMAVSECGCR	5.6e+07
GDF11 (ligand, UniProt O95390 299-407, looked up, also called BMP11) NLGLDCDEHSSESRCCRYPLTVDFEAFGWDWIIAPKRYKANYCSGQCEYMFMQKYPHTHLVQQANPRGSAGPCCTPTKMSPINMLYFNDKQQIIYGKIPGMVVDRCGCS	3.8e+07

I. BMP6 (ligand, UniProt P22004 382-513, looked up) QQSRNRSTQSQDVARVSSASDYNSSELKTACRKHELYVSFQDLGWQDWIIAPKGYAANYCDGECSFPLNAHMNATNHAIVQTLVHLMNPEYVPKPCCAPTKLNAISVLYFDDNSNVILKKYRNMVVRACGCH
II. GDF3 (ligand, UniProt Q9NR23 251-364, looked up) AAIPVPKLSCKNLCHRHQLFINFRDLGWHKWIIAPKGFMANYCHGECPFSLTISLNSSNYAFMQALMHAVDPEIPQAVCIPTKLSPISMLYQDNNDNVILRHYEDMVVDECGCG
Name the one with the greater kon value, either I or II as given. Label of pick, please.
II

Data origin, for the record: patent US20200397865A1
